Kindly state Kd for each of the entries shown.
Biological target: T1, BS69 CC-MYND domain (amino acids 480-602) (human, UniProt Q15326-1 480-602)
T1 construct: BS69 (ZMYND11), human, C-terminal region with the coiled-coil and MYND domains, amino acids 480-602; canonical isoform 1 of 602 amino acids; Dimer by SEC-MALS; Amplified from pCI-BS69 and cloned into pET49b+; also called ZMYND11; source: E. coli Rosetta 2 (DE3) pLysS, purified (cobalt resin, 3C protease cleavage, Superdex 75); not shown: GST, N-terminal, cleaved; His6, N-terminal, cleaved
T1 sequence (looked up): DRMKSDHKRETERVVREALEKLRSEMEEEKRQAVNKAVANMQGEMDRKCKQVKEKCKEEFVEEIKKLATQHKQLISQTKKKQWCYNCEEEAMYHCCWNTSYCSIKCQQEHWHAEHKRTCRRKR
Assay: ITC; EBNA2 peptide (1 mM) titrated into BS69CC-MYND (0.1 mM) in the cell, 13 injections, 25°C, 20 mM Tris-HCl, 100 mM NaCl, 1 mM TCEP, pH 7.5; one-site model with n fixed to 1
Settings: both partners purified
One number for each entry, in µM.

INSERT INTO measurements (binder, value_units, numeric_result) VALUES
  ('EPPFLFPSDWY (source: synthetic peptide (Peptide Synthetics)) [type 2 EBNA2 motif 2 peptide (402-412)]', 'µM', 176);

# ---- query binder ----
Short answer for YPPTLEPAELD (source: synthetic peptide (Peptide Synthetics)) [type 2 EBNA2 motif 3 peptide T2 EBNA2_(412-422)] : Kd was 219
